Target: Adenosine receptor A1 (Mus musculus, UniProt Q60612)
Sequence (Q60612 whole entry): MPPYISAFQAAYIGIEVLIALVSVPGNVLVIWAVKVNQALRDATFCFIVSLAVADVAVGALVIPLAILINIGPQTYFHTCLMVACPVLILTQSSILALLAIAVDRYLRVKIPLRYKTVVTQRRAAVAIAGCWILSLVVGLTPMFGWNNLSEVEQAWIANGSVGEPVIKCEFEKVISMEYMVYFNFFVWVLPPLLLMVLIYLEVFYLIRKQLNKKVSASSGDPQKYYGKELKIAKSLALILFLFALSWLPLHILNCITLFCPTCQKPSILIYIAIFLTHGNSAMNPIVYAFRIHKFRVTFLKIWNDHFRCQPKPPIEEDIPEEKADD
observable: Ki (µM)
Report the figure in µM without appending any unit label.

Read off the recorded Ki for Cc1cc(I)cc(-c2nc(NC(=O)c3cccnc3)sc2-c2ccncc2)c1
2.64

---

Test: C0 in Sprague-Dawley rat brain at 1 mg/kg, iv measured after 8 hrs by LC-MS/MS analysis
Type: ADME, organism-based
observable: C0 at 8 h (ng/mL)
Report the figure in ng/mL without appending any unit label.

Read off the recorded C0 at 8 h for Cc1cc(C)cc(-c2nc(NC(=O)c3cccnc3)sc2-c2ccncc2)c1
760

---

Experiment: Clearance in Sprague-Dawley rat plasma at 1 mg/kg, iv measured after 8 hrs by LC-MS/MS analysis
Assay type: ADME, organism-based
observable: clearance (mL/min/kg)
Report the figure in mL/min/kg without appending any unit label.

Read off the recorded clearance for Cc1cc(C)cc(-c2nc(NC(=O)c3cccnc3)sc2-c2ccncc2)c1
40

---

Biological target: Adenosine receptor A2a (Rattus norvegicus, UniProt P30543)
Sequence (P30543 whole entry): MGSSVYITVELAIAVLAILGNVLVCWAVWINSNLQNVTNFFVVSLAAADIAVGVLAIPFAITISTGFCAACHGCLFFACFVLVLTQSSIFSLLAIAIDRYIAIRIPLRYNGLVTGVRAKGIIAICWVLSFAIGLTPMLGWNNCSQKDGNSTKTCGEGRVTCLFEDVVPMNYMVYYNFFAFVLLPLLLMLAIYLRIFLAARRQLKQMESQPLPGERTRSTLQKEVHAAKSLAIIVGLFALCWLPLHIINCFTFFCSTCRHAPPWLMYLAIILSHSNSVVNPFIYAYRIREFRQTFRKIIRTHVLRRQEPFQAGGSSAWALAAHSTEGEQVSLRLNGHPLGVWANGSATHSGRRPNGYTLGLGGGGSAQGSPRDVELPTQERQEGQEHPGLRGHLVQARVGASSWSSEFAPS
observable: Ki (nM)
Report the figure in nM without appending any unit label.

Fetch value of Ki on Adenosine receptor A2a (Rattus norvegicus, UniProt P30543) for Cc1cc(C)cc(-c2nc(NC(=O)c3cccnc3)sc2-c2ccncc2)c1 .
1150

---

Assay: C0 in Sprague-Dawley rat plasma at 1 mg/kg, iv measured after 8 hrs by LC-MS/MS analysis
Type: ADME, organism-based
observable: C0 at 8 h (ng/mL)
Report the figure in ng/mL without appending any unit label.

Read off the recorded C0 at 8 h for Cc1cc(C)cc(-c2nc(NC(=O)c3cccnc3)sc2-c2ccncc2)c1
628

---

Molecular target: Adenosine receptor A3 (Rattus norvegicus, UniProt P28647)
Assay: Binding affinity to rat adenosine A3 receptor expressed in HEK293 cells measured by radioligand binding assay
Type: cell-based
observable: Kd (nM)
Report the figure in nM without appending any unit label.

Read off the recorded Kd for [3H]c1cncc(C(=O)Nc2nc(-c3cc(C)cc(C)c3)c(-c3ccncc3)s2)c1
2.8

---

Each entry below lists one item and its recorded pKi value.
Molecular target: Adenosine receptor A3 (Rattus norvegicus, UniProt P28647)
Sequence (P28647 whole entry): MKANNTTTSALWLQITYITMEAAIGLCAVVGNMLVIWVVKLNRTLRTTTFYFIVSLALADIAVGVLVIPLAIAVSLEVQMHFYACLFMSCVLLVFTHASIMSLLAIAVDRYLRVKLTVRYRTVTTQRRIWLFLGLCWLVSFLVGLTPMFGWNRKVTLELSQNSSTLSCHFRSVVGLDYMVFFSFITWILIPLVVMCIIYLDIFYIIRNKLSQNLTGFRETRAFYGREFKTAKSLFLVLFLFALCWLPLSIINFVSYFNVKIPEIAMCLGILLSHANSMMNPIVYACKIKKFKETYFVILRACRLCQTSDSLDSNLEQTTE
Assay type: cell-based, HEK293
To interpret pKi, take it as minus log10 of a concentration measured in moles per litre.

CCCOC(=O)c1c(-c2ccccc2)nc(CC)c(C(=O)SCC)c1CCC: 6.67

Fetch value of pKi on Adenosine receptor A3 (Rattus norvegicus, UniProt P28647) for Cc1cc(C)cc(-c2nc(NC(=O)c3cccnc3)sc2-c2ccncc2)c1 .
8.07

---

Target: Adenosine receptor A3 (Mus musculus)
Sequence (Q61618 whole entry): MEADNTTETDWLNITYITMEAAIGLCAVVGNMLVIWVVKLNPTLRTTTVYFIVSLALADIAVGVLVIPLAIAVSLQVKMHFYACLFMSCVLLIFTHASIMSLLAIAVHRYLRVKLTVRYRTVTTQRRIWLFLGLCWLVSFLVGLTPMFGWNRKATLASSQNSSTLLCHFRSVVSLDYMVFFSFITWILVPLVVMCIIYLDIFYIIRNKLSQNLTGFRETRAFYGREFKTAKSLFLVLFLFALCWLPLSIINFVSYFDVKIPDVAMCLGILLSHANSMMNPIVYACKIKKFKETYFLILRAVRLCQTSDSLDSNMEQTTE
Format: cell-based, HEK293
observable: pKi
To interpret pKi, take it as minus log10 of a concentration measured in moles per litre.

Cc1cc(C)cc(-c2nc(NC(=O)c3cccnc3)sc2-c2ccncc2)c1: 8.02

Fetch value of pKi on Adenosine receptor A3 (Mus musculus) for COC(=O)/C=C/c1cc(C)cc(-c2nc(NC(=O)c3cccnc3)sc2-c2ccncc2)c1 .
6.92

Fetch value of pKi on Adenosine receptor A3 (Mus musculus) for CCCOC(=O)c1c(-c2ccccc2)nc(CC)c(C(=O)SCC)c1CCC .
6.46
